# measurementTarget: Prostaglandin G/H synthase 1 (Homo sapiens)
# measurementParameters: at 100 µM
# Description: Inhibition of human recombinant COX1 by measuring PGE2 formation at 100 uM
assayEndpoint: inhibition (%)

Example compounds with recorded inhibition:
Ask | Returns the measured inhibition for the input compound. Input: Cc1ccc(-c2cc(C(F)(F)F)nn2-c2ccc(C(=O)O)cc2)cc1
Reply | 67

Ask | What value of inhibition has been reported for the following compound? O=C(O)c1ccc(-n2nc(C(F)(F)F)cc2-c2ccc(C(F)(F)F)cc2)cc1
Reply | 28

Ask | # lookup: inhibition of O=C(O)Cc1ccc(-n2nc(C(F)(F)F)cc2-c2ccc(C(F)(F)F)cc2)cc1
Reply | 96

Ask | # input compound: Cc1ccc(-c2cc(-c3ccccc3)nn2-c2ccc(S(N)(=O)=O)cc2)cc1 ; wanted: its inhibition
Reply | 100

Ask | Quick one: inhibition of CCOC(=O)c1ccc(-n2nc(C(F)(F)F)cc2-c2ccc(C(F)(F)F)cc2)cc1 ?
Reply | 55

I: Cc1ccc(-c2cc(C(=O)O)nn2-c2ccc(S(N)(=O)=O)cc2)cc1
II: CSc1ccc(-n2nc(C(F)(F)F)cc2-c2ccc(C)cc2)cc1
Ask | Of I and II , whose reported inhibition is numerically smaller? Reply with the label of the item you choose.
Reply | I
(I: 66%, II: 95%)

====

# measurementTarget: CYP2C9 (Homo sapiens)
# Sequence (P11712 whole entry): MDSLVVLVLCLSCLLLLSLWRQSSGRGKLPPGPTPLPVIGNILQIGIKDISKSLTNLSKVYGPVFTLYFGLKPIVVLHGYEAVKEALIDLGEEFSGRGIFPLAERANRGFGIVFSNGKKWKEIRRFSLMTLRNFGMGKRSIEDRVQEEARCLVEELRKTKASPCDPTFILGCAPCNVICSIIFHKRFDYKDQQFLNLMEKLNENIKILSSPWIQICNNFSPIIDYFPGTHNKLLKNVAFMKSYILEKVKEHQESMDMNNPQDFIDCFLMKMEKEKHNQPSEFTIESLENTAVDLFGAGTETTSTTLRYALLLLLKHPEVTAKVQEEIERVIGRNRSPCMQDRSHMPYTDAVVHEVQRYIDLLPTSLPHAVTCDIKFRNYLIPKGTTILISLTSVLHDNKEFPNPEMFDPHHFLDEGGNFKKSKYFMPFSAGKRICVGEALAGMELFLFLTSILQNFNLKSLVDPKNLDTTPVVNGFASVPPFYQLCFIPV
# measurementNotes: Metabolic stability in presence of human recombinant CYP2C9 at 1 uM after 30 mins
# Type: ADME
assayEndpoint: metabolized at 0.5 h, 1 µM (%)

Ask | Param item = NS(=O)(=O)c1ccc(-n2nc(C(F)(F)F)cc2-c2ccc(C(F)(F)F)cc2)cc1 ; retrieve measured metabolized at 0.5 h, 1 µM.
Reply | 0

I: Cc1ccc(-c2cc(C(F)(F)F)nn2-c2ccc(CC(=O)O)cc2)cc1
II: CCOC(=O)c1ccc(-n2nc(C(F)(F)F)cc2-c2ccc(C(F)(F)F)cc2)cc1
III: Cc1ccc(-c2cc(C(F)(F)F)nn2-c2ccc(C)cc2)cc1
Ask | Order the records, beginning with the lowest metabolized at 0.5 h, 1 µM and ending with the highest. Answer format: list of labels, ordered as asked.
Reply | II, I, III
(II: 2%, I: 10%, III: 30%)

====

# measurementTarget: Prostaglandin G/H synthase 1 (Homo sapiens) (UniProt P23219);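 also: recombinant human COX-1 enzyme, activity read out as PGE2 production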
# Sequence (P23219 whole entry): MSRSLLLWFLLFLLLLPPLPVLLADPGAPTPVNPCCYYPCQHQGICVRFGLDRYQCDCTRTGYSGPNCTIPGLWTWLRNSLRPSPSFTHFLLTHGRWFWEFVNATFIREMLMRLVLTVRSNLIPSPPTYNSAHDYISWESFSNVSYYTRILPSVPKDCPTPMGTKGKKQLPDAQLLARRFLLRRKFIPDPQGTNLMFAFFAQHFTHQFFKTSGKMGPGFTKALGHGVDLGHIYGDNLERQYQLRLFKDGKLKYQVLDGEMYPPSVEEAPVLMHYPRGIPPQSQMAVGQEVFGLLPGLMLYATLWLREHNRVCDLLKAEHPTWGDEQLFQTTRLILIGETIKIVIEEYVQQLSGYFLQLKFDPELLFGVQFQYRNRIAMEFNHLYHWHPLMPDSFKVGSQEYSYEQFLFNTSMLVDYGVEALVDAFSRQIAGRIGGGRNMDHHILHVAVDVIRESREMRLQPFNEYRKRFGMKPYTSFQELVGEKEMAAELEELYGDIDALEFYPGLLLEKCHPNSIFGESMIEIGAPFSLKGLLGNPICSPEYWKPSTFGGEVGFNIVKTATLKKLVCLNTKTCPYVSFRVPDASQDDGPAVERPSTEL
# measurementParameters: at 100 µM
assayEndpoint: inhibition (%)

Here is how some compounds turned out for inhibition.
Ask | // fetch Prostaglandin G/H synthase 1 (Homo sapiens) (UniProt P23219) inhibition for Cc1ccc(-c2cc(C(F)(F)F)nn2-c2ccc(S(C)(=O)=O)cc2)cc1
Reply | 99

Ask | Lookup: inhibition / Prostaglandin G/H synthase 1 (Homo sapiens) (UniProt P23219) / Cc1ccc(-c2cc(C(F)(F)F)nn2-c2ccc(CC(=O)O)cc2)cc1
Reply | 88

a: Cc1ccc(-c2cc(C(F)(F)F)nn2-c2ccc([S+](C)[O-])cc2)cc1 (centres undefined)
b: CCOC(=O)c1ccc(-n2nc(C(F)(F)F)cc2-c2ccc(C)cc2)cc1
Ask | # query: argmin of inhibition over a and b Refer to your chosen entry by its label in the reply.
Reply | b
